Data origin, for the record: patent US6809097B1

REPORTED METRIC: melting point

Look over these answered cases.
{"columns": ["COMPOUND", "melting point"],
 "data": [
  ["COCCOc1cc2nccc(Nc3ccc(Cl)cc3F)c2cc1C#N.Cl", "247 to 250 °C"],
  ["COc1cc2c(Nc3ccc(C)c(OC(C)=O)c3)ccnc2cc1OCc1ccccc1.Cl", "230 to 232 °C"],
  ["COc1cc2nccc(Nc3cc(O)c(C)cc3F)c2cc1OC.Cl", "> 280 °C"]
]}

// next item, melting point requested
Consider COCCOc1cc2nccc(Oc3cccc(O)c3)c2cc1C#N [Example 50] . Its measured melting point is 159 to 163 °C
